TGI for assorted compounds
# Tested on: SK-OV-3 ovarian
# test: NCI tumour cell line growth inhibition, 48 h

Previously resolved entries follow.
compound: COc1cc2c3c(n(C)c(=O)c2cc1OC)-c1ccc(C#N)cc1C3=O
assay metric: TGI
measured result: > 100 µM
//
compound: COC(=O)c1ccc(Nc2nc3nc[nH]c3c(=O)[nH]2)cc1
assay metric: TGI
measured result: > 100 µM
//
compound: CC(C)(C)C(C#N)(C#N)c1ccc(C(C#N)(C#N)C(C)(C)C)nn1
assay metric: TGI
measured result: > 100 µM
//
compound: COc1ccc(-n2sc3ncccc3c2=O)cc1
assay metric: TGI
measured result: > 100 µM
//
compound: Nc1ncnc2c1ncn2C1CC(OCc2ccccc2[N+](=O)[O-])C(CO)O1 (configuration not stated)
assay metric: TGI
measured result: > 50 µM

Q: Would you mind telling me what TGI value was observed for CC1CC(=O)N(N(C)C)C(C#N)(C#N)C1(C#N)C#N (configuration not stated) ?
A: > 64.9 µM

Q: Given "COc1nnc2ccc(N3CCC(c4ccc(OCCN5CCN(C)C(=O)[C@H]5C)cc4)CC3)nn12" , state its recorded TGI.
A: > 42.1 µM
